From: paper PMC12121777

- Test system: Mycobacterium avium 330/88
- procedure-text: MIC, micro method in Šula's semisynthetic medium, M. avium
- Format: cell-based
- condition-notes: 330/88, read-out: MIC M. avium
Catalogue of MIC values

Entry under test: CCCCCCCNC(=O)NNC(=O)c1cc([N+](=O)[O-])cc([N+](=O)[O-])c1 [Compound 4g] . Its MIC was 125 to 250 µM

Summary for this compound, CCCCCCCCCCCCCCCCCCNc1nnc(-c2cc([N+](=O)[O-])cc([N+](=O)[O-])c2)o1 [Compound 5r] : MIC is > 1000 µM

====

Readings of MIC for the listed compounds
- Test system: Mtb 331/88 (i.e., H37Rv)
- procedure-text: MIC, micro method in Šula's semisynthetic medium, drug-susceptible Mtb
- Assay type: cell-based, Mycobacterium tuberculosis
- condition-notes: Mycobacterium tuberculosis, H37RV, 504 h; 21 days
Please reply with the bare figure in µM and do not write the unit itself.

Examples with their reported MIC follow.
CCCCNC(=O)NNC(=O)c1cc([N+](=O)[O-])cc([N+](=O)[O-])c1 [Compound 4d] = 2
CCCCCCCCCCCCCCCCNc1nnc(-c2cc([N+](=O)[O-])cc([N+](=O)[O-])c2)o1 [Compound 5p] = 8
CCCCNc1nnc(-c2cc([N+](=O)[O-])cc([N+](=O)[O-])c2)o1 [Compound 5d] = 0.5
CCCCCCCCCCCNc1nnc(-c2cc([N+](=O)[O-])cc([N+](=O)[O-])c2)o1 [Compound 5k] = 1

// moving on: another record for MIC
get_value(item= CCCCCCCCCNC(=O)NNC(=O)c1cc([N+](=O)[O-])cc([N+](=O)[O-])c1 [Compound 4i] , readout=MIC) returns 1
